This collection of values is drawn from patent US20240101570A1.

System: HCT116 WT cells
assay-text: HCT116 WT cell proliferation / viability (CellTiter-Glo, 6 days)
Assay type: cell-based
run-parameters: Homo sapiens, HCT-116, 144 h, HCT116 WT cells, 6 days, CellTiter-Glo; read-out: HCT-116 WT IC50
pIC50: −log10 of the molar value.
assay-endpoint: pIC50

1) CN(Cc1ccc(C(F)(F)F)cn1)C(=O)c1cc2c3c(c(N)nc2cc1C(F)(F)F)COC3 < 4.30
2) C[C@@H]1OCc2c1c(N)nc1cnc(C(=O)N(Cc3ccc(OC(F)F)nn3)CC3CC3)cc21 < 4.30
3) Nc1nc2ccc(C(=O)N(Cc3ccc(C(F)F)cn3)C3CC3)cc2c2c1COC2 < 5.00
